The reported numbers originate from paper PMC12903857.

Reported % bound, APO, 24h is given for each of the following compounds.
Molecular target: 14-3-3σ (Homo sapiens)
Assay: Intact mass spectrometry assay, apo (no peptide)
Type: binding
Parameters: full-length for mass spectrometry and fluorescence anisotropy assays; made in house; host or cells: E. coli Rosetta 2(DE3)pLysS, pPROEX HTb vector
Conditions: 1 μM compound, 100 nM 14-3-3σ, 24 h

Answered cases to consult:
structure_notation=O=C(CCl)NCC1CCN(S(=O)(=O)c2ccc(Br)cc2F)CC1 meas_value=4.5%
structure_notation=O=C(CCl)NCCCC1CCN(S(=O)(=O)c2ccc(Cl)cc2)CC1 meas_value=4.3%
structure_notation=O=C(CCl)NCC1CCN(S(=O)(=O)c2ccc(F)c(F)c2)CC1 meas_value=9.1%

Look up % bound, APO, 24h: O=C(CCl)NCC1CCN(S(=O)(=O)c2ccccc2F)CC1 2.4%

For the compound O=C(CCl)N1CC2(CC(NS(=O)(=O)c3ccc(Br)c(F)c3)C2)C1 , what % bound, APO, 24h is on record? 65%

GET /values?readout=% bound, APO, 24h&item= O=C(C(Cl)Cl)N1CC2(CCN(S(=O)(=O)c3ccc(Br)c(F)c3)CC2(F)F)C1 0%

% bound, APO, 24h for O=C(CCl)NCC1CCN(S(=O)(=O)c2ccc3c(c2)OCO3)CC1 ? 5.2%

Returns the measured % bound, APO, 24h for the input compound. Input: O=C(CCl)NCC1CCN(S(=O)(=O)C2CC3(C2)CC(F)(F)C3)CC1 0.5%

# % bound, APO, 24h lookup, item C=C(F)C(=O)N1CC2(CCN(S(=O)(=O)c3ccc(Br)c(F)c3)CC2(F)F)C1 0%

---

Molecular target: 14-3-3σ/C-RAF259 (Homo sapiens, UniProt P31947)
Sequence (P31947 whole entry, other chains not shown): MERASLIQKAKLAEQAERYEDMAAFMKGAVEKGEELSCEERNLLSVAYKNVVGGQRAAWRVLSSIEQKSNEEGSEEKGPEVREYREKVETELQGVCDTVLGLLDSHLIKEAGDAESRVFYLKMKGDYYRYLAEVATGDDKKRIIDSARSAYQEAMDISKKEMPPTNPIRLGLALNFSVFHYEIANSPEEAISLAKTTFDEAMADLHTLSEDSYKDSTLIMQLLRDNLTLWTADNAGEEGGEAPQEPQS
Assay: Fluorescence anisotropy (FA) compound titration
Format: binding
Settings: 10 nM C-RAF259-FAM 10-mer, 5 μΜ 14-3-3σ, overnight; read-out: Compound titrations EC50 value C-RAF259
measurement.type: pEC50
On this scale, pEC50 is minus log10 of a concentration expressed in M (mol/L).

structure_notation=O=C(CCl)N1CC2(CCCN(S(=O)(=O)c3ccc(Br)c(F)c3)C2)C1 meas_value=5.30

For O=C(CCl)NCC1CCN(S(=O)(=O)c2ccc(Cl)nc2)CC1 , what is its reported pEC50? 4.09

---

Target: 14-3-3σ/C-RAF259 (Homo sapiens, UniProt P31947)
Test: FA protein titration, C-RAF259 peptide
Details: appKd DMSO / appKd compound
Some compounds, each annotated with its measured Fold stabilization (100 µM compound), C-RAF259 (10mer).
Write it as a number; the unit fold goes unstated.

Consider the reported Fold stabilization (100 µM compound), C-RAF259 (10mer) for these compounds:
compound=O=C(CCl)NCC1CCN(S(=O)(=O)c2ccc(Br)cc2F)CC1 reading_unit=fold meas_value=18
compound=O=C(CCl)NCC1CCN(S(=O)(=O)c2cc(F)c(Br)c(F)c2)CC1 reading_unit=fold meas_value=13
compound=O=C(CCl)N1CC2(CC(NS(=O)(=O)c3ccc(Br)c(F)c3)C2)C1 reading_unit=fold meas_value=2
compound=O=C(CCl)NCC1CCN(S(=O)(=O)c2ccc(F)cc2)CC1 reading_unit=fold meas_value=4
compound=COc1ccc(S(=O)(=O)N2CCC(CNC(=O)CCl)CC2)cc1F reading_unit=fold meas_value=13
compound=CC1(CNC(=O)CCl)CCN(S(=O)(=O)c2ccc(Br)c(F)c2)CC1 reading_unit=fold meas_value=49
compound=O=C(CCl)NCC1CCN(S(=O)(=O)c2ccc(OC(F)(F)F)cc2)CC1 reading_unit=fold meas_value=14
compound=O=C(CCl)NCC1CCN(S(=O)(=O)c2cc(F)c(Br)cc2F)CC1 reading_unit=fold meas_value=7

Item O=C(CCl)N1CC2CC1CN2S(=O)(=O)c1ccc(Br)c(F)c1 (centres unmarked) has what recorded Fold stabilization (100 µM compound), C-RAF259 (10mer)? 6

Which Fold stabilization (100 µM compound), C-RAF259 (10mer) value belongs to Cc1ccc(S(=O)(=O)N2CCC(CNC(=O)CCl)CC2)cc1 ? 21

---

Target: 14-3-3σ/C-RAF259 (Homo sapiens)
Experiment: Intact mass spectrometry assay with C-RAF259 phospho-peptide
Assay type: binding
Design: full-length for mass spectrometry and fluorescence anisotropy assays; made in house; host or cells: E. coli Rosetta 2(DE3)pLysS (14-3-3σ); peptides from Elim Biopharmaceuticals
Conditions: 1 μM compound, 100 nM 14-3-3σ, 18 µM peptide, 8 h
measurement.type: % bound, C-RAF259 (11mer), 8h (%)
Enter your answer as a number in %; do not include the unit.

Look over these answered cases.
compound="O=C(CCl)N1CC2(CC(NS(=O)(=O)c3ccc(Br)c(F)c3)CO2)C1 (stereo not drawn)" measurement_type="% bound, C-RAF259 (11mer), 8h" meas_value=30.4
compound=O=C(CCl)NCC1CCN(S(=O)(=O)c2ccccc2)CC1 measurement_type="% bound, C-RAF259 (11mer), 8h" meas_value=5.6
compound=O=C(CCl)NCC1CCN(S(=O)(=O)c2ccc(F)cc2)CC1 measurement_type="% bound, C-RAF259 (11mer), 8h" meas_value=15

Consider the record given below.
Find the recorded % bound, C-RAF259 (11mer), 8h belonging to N#Cc1ccc(S(=O)(=O)N2CCC(CNC(=O)CCl)CC2)cc1 and report it. 12.1

---

Target: 14-3-3σ (Homo sapiens)
Assay: Intact mass spectrometry assay, apo (no peptide)
Type: binding
Design: full-length for mass spectrometry and fluorescence anisotropy assays; made in house; host or cells: E. coli Rosetta 2(DE3)pLysS, pPROEX HTb vector
Conditions: 1 μM compound, 100 nM 14-3-3σ, 1 h
measurement.type: % bound, APO, 1h
In your response, the unit should come after the numeric value.

Answered examples (8):
molecule=O=C(CCl)NCC1CCN(S(=O)(=O)c2ccc3c(c2)OCO3)CC1 measurement_target="14-3-3σ (Homo sapiens)" meas_value=0%
molecule=O=C(CCl)NCC1CCN(S(=O)(=O)Cc2cccc(F)c2)CC1 measurement_target="14-3-3σ (Homo sapiens)" meas_value=0%
molecule="O=C(CCl)NCC1CCN(S(=O)(=O)C2CCC3(CC2)CC3(F)F)CC1 (stereo not drawn)" measurement_target="14-3-3σ (Homo sapiens)" meas_value=0%
molecule=O=C(CCl)NCC1CCN(S(=O)(=O)C2CC3(C2)CC(F)(F)C3)CC1 measurement_target="14-3-3σ (Homo sapiens)" meas_value=0%
molecule=O=C(CCl)NCC1CCN(S(=O)(=O)c2ccc(Br)cc2F)CC1 measurement_target="14-3-3σ (Homo sapiens)" meas_value=0%
molecule=C=C(F)C(=O)N1CC2(CCN(S(=O)(=O)c3ccc(Br)c(F)c3)CC2(F)F)C1 measurement_target="14-3-3σ (Homo sapiens)" meas_value=0%
molecule=O=C(CCl)NCC1CCN(S(=O)(=O)c2ccc(Cl)nc2)CC1 measurement_target="14-3-3σ (Homo sapiens)" meas_value=1.9%
molecule=O=C(CCl)NCC1CCN(S(=O)(=O)Cc2ccccc2)CC1 measurement_target="14-3-3σ (Homo sapiens)" meas_value=0%

Test system 14-3-3σ (Homo sapiens); read-out % bound, APO, 1h; what value for O=C(CCl)N1CC[C@]2(CCN(S(=O)(=O)c3ccc(Br)c(F)c3)C2)C1 ? 5.6%

---

Some compounds, each annotated with its measured pEC50.
Target: 14-3-3σ/C-RAF259 (Homo sapiens)
Assay: Fluorescence anisotropy (FA) compound titration
Assay type: binding
Settings: 10 nM C-RAF259-FAM 10-mer, 5 μΜ 14-3-3σ, overnight; read-out: Compound titrations EC50 value C-RAF259
# pEC50 = -log10(concentration in molar units)

Some solved cases for reference:
compound=O=C(CCl)N1CC2(CCN(S(=O)(=O)c3ccc(Br)c(F)c3)CC2)C1 measurement_type=pEC50 meas_value=4.33
compound=COc1ccc(S(=O)(=O)N2CCC(CNC(=O)CCl)CC2)cc1F measurement_type=pEC50 meas_value=5.05
compound=O=C(CCl)NCC1CCN(S(=O)(=O)c2ccc(F)cc2)CC1 measurement_type=pEC50 meas_value=4.77
compound=O=C(CCl)NCC1CCN(S(=O)(=O)c2ccc(Br)c(F)c2)CC1 measurement_type=pEC50 meas_value=5.30
compound=O=C(CCl)NCC1CCN(S(=O)(=O)c2ccccc2F)CC1 measurement_type=pEC50 meas_value=4.06
compound="O=C(CCl)N1CC2CC1CN2S(=O)(=O)c1ccc(Br)c(F)c1 (stereo not drawn)" measurement_type=pEC50 meas_value=4.92
compound=CC1(CNC(=O)CCl)CCN(S(=O)(=O)c2ccc(Br)c(F)c2)CC1 measurement_type=pEC50 meas_value=4.96
compound=O=C(CCl)NCC1CCN(S(=O)(=O)c2cc(F)c(Br)c(F)c2)CC1 measurement_type=pEC50 meas_value=5.70
compound="O=C(CCl)N1CC2CCC1CC2NS(=O)(=O)c1ccc(Br)c(F)c1 (stereo not drawn)" measurement_type=pEC50 meas_value=4.11
compound=O=C(CCl)NCC1CCN(S(=O)(=O)c2ccc(OC(F)(F)F)cc2)CC1 measurement_type=pEC50 meas_value=4.89

// returns reported pEC50 for input O=C(CCl)NCC1CCN(S(=O)(=O)c2ccc3c(c2)OCO3)CC1 4.59

Given O=C(CCl)N1CC2(C1)CN(S(=O)(=O)c1ccc(C(F)(F)F)c(F)c1)CCO2 , state its recorded pEC50. 5.05
